# credit: ChEMBL document CHEMBL1201862

Test system: SK-MEL-28
assay.procedure: NCI tumour cell line growth inhibition, 48 h
Calls of active or inactive are those of the source. No stated cut-off is given here; in the data, active = GI50 up to about 1.1 µM and inactive = higher.
Please provide measured GI50 for the entries that follow.

Q: Need GI50, item `OCc1ccc(-c2ccc(-c3ccc(CO)s3)o2)s1`
Ans: 42.7 µM (inactive)

Q: Entry `N=C(N)NS(=O)(=O)c1ccc(NC(=O)c2cccc3c(N)c4ccccc4nc23)cc1` has what GI50?
Ans: > 100 µM (inactive)

Q: Can you share its GI50? I mean this molecule: `CC1(C)CC(=O)C(Cc2ccccc2)(Cc2ccccc2)C(=O)C1`
Ans: > 100 µM (inactive)

Q: Request the reported GI50 associated with `O=C(/C=C/c1ccc(Cl)cc1)c1ccc(Cl)s1`
Ans: 50.1 µM (inactive)

Q: What value of GI50 has been recorded for this entry: CN(C)CC1CCC/C(=C\c2ccc(N(C)C)cc2)C1=O (stereo unspecified)
Ans: 5.64 µM (inactive)

Q: GI50 for OCC1OC(c2scc3c(=S)[nH]cnc23)C(O)C1O (stereo unspecified) ?
Ans: 74 µM (inactive)
